Catalogue of AC50 readings, one per entry.
# test_system: Full length WRN protein (aa 2-1432) (Homo sapiens (Human), UniProt Q14191)
# Sequence (Q14191 2-1432): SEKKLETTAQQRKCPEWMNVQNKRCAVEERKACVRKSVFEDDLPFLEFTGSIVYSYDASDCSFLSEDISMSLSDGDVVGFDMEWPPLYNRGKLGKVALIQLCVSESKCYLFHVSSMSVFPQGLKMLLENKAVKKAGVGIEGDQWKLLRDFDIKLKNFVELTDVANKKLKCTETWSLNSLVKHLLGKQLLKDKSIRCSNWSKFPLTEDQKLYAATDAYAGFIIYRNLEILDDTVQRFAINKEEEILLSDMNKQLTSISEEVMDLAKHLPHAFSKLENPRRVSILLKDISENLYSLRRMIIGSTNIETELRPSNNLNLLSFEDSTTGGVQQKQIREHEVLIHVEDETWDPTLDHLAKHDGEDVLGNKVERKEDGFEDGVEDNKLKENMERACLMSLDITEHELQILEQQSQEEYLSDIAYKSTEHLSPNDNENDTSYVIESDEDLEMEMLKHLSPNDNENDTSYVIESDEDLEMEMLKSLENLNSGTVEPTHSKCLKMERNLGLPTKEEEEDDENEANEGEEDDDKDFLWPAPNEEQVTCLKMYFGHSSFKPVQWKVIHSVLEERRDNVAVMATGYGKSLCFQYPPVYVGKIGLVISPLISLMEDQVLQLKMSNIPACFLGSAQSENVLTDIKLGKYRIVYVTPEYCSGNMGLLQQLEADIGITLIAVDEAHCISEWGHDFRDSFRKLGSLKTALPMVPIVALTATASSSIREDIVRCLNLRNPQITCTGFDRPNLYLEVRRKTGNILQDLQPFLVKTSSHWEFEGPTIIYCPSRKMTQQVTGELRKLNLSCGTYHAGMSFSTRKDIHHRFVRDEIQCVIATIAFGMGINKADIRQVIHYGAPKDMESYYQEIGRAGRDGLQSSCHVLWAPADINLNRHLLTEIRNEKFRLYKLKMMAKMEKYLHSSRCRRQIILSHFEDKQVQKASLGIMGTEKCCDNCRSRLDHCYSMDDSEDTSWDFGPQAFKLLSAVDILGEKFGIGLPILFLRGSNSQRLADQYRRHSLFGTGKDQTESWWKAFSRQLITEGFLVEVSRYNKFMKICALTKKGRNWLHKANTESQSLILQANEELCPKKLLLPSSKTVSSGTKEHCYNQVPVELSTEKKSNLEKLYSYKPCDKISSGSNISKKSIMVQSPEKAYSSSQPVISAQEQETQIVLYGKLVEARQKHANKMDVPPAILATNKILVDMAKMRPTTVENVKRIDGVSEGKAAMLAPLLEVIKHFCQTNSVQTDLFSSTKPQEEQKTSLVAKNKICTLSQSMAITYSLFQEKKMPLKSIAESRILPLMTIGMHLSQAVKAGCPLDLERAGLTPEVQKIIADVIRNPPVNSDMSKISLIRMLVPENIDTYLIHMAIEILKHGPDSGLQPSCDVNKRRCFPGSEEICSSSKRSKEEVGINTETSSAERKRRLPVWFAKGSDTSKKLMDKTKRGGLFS
# procedure_summary: WRN ATPase ADP-Glo biochemical assay, Assay Format A (10 μM ATP)
# particulars: 0.25 nM WRN, 100 nM C6.18 ssDNA, 30 min preincubation, read-out: ATPase ADPGlo AC50 (uM)- Assay Format A

Worked cases, answers included:
compound	measurement_type	test_result
C=CC(=O)N1CCc2nn(-c3ccc(C4CC4)cc3)c3c2C(C1)N(C(=O)c1cnc2[nH]c(C(F)(F)F)nc2c1)CC3 (stereo not shown) [Compound 124]	AC50	0.015 to 0.055 µM
C=CC(=O)N1CCc2nn(-c3ccc(C4CC4)cc3)c3c2C(C1)N(C(=O)c1cnc(Br)cc1C)CC3 (stereo not shown) [Compound 113]	AC50	0.005 to 0.015 µM
C=CC(=O)N1CCc2nn(-c3ccc(C4CCC4)cc3O)c3c2C(C1)N(C(=O)c1ccc(Br)c2[nH]ncc12)CC3 (stereo not shown) [Compound 87]	AC50	< 0.0015 µM
C=CC(=O)N1CC(C)Oc2nn(-c3ccc(C(C)C)cc3)c3c2C(C1)N(C(=O)c1ccc(Br)c2[nH]cnc12)CC3 (stereo not shown) [Compound 53]	AC50	0.015 to 0.055 µM
C=CC(=O)N1CCc2nn(-c3ccc(C4CC4)cc3)c3c2C(C1)N(C(=O)c1cnc2c(c1)c(C(F)(F)F)nn2C)CC3 (stereo not shown) [Compound 111]	AC50	0.015 to 0.055 µM

Give its AC50 value. Item: C=CC(=O)N1CCc2nn(-c3ccc(C4CCC4)cc3O)c3c2C(C1)N(C(=O)c1ccc2c(Br)n[nH]c2c1)CC3 (stereo not shown) [Compound 24] < 0.0015 µM

Give the measured AC50 of C=CC(=O)N1CCc2nn(-c3ccc(C4CCC4)c(O)c3)c3c2C(C1)N(C(=O)c1cnc(C(F)(F)F)c(O)c1)CC3 (stereo not shown) [Compound 91] . < 0.0015 µM

====

# test_system: Full length WRN protein (aa 2-1432) (Homo sapiens (Human), UniProt Q14191)
# procedure_summary: WRN ATPase ADP-Glo biochemical assay, Assay Format B (100 μM ATP)
# particulars: 0.25 nM WRN, 100 nM C6.18 ssDNA, 60 min preincubation, read-out: ATPase ADPGlo AC50 (uM)- Assay Format B
measurement_type: AC50

Below, each entry is followed by its recorded AC50 result.
compound	AC50
C=CC(=O)N1CCc2nn(-c3ccc(C4CC4)cc3)c3c2C(C1)N(C(=O)c1ccc(C#N)c2[nH]cnc12)CC3 (stereo not shown)	0.015 to 0.055 µM
C=CC(=O)N1CCOc2nn(-c3ccc(C4CC4)cc3)c3c2C(C1)N(C(=O)c1ccc(Br)c2[nH]cnc12)CC3 (stereo not shown)	0.015 to 0.055 µM
C=CC(=O)N1CC(OC)c2nn(-c3ccc(C4CCC4)cc3)c3c2C(C1)N(C(=O)c1cnc(C(F)(F)F)c(O)c1)CC3 (stereo not shown)	0.005 to 0.015 µM
C=CC(=O)N1CC(O)c2nn(-c3ccc(C4CC4)cc3)c3c2C(C1)N(C(=O)c1cnc(C(F)(F)F)cc1N)CC3 (stereo not shown)	0.005 to 0.015 µM

# query: AC50 | item C=CC(=O)N1CCc2nn(-c3cc(F)c(C4CC4)cc3O)c3c2C(C1)N(C(=O)c1cnc(C(C)(F)F)c(F)c1N)CC3 (stereo not shown) | system: Full length WRN protein (aa 2-1432) (Homo sapiens (Human), UniProt Q14191) 0.005 to 0.015 µM

Field: AC50 (Full length WRN protein (aa 2-1432) (Homo sapiens (Human), UniProt Q14191)). Entry: C=CC(=O)N1CCc2nn(-c3ccc(C4CC4)cc3)c3c2C(C1)N(C(=O)c1cnc(SC)nc1N)CC3 (stereo not shown) 0.015 to 0.055 µM

Param readout= AC50; system= Full length WRN protein (aa 2-1432) (Homo sapiens (Human), UniProt Q14191); entry= C=CC(=O)N1CC(OCc2cnc3sccn23)c2nn(-c3ccc(C4CC4)cc3)c3c2C(C1)N(C(=O)c1ccc(C(F)(F)F)nc1)CC3 (stereo not shown) ; returns value. 0.015 to 0.055 µM

Fill in the recorded AC50 for this compound, with Full length WRN protein (aa 2-1432) (Homo sapiens (Human), UniProt Q14191) as test system: C=CC(=O)N1CCc2nn(-c3ccc(C4CCC4)cc3O)c3c2C(C1)N(C(=O)c1ccc(SC(F)(F)F)nc1)CC3 (stereo not shown) 0.005 to 0.015 µM

Record C=CC(=O)N1CCc2nn(-c3ccc(C4CC4)cc3)c3c2C(C1)N(C(=O)c1cnc(C(F)(F)F)c(O)c1)CC3 (stereo not shown) : what is its AC50 with Full length WRN protein (aa 2-1432) (Homo sapiens (Human), UniProt Q14191)? 0.015 to 0.055 µM

Give recorded AC50 with Full length WRN protein (aa 2-1432) (Homo sapiens (Human), UniProt Q14191) for the following compound: C=CC(=O)N1CC(OC2CC2)c2nn(-c3ccc(C4CCC4)cc3)c3c2C(C1)N(C(=O)c1cnc(C(F)(F)F)cc1N)CC3 (stereo not shown) 0.0015 to 0.005 µM

Request - read-out AC50 | tested on Full length WRN protein (aa 2-1432) (Homo sapiens (Human), UniProt Q14191) | compound C=CC(=O)N1CCc2nn(-c3ccc(C4CC4)cc3O)c3c2C(C1)N(C(=O)c1ccc(Br)nc1N)CC3 (stereo not shown) 0.005 to 0.015 µM

Give the reported AC50 for C=CC(=O)N1CCc2nn(-c3ccc(C(C)C)cc3)c3c2C(C1)N(C(=O)c1cnc(C(F)(F)F)c(OC)c1)CC3 (stereo not shown) (system: Full length WRN protein (aa 2-1432) (Homo sapiens (Human), UniProt Q14191)). 0.015 to 0.055 µM

Form field: AC50 recorded for C=CC(=O)N1CCc2nn(-c3ccc(C4CCC4)cc3)c3c2C(C1)N(C(=O)c1cnc(C(F)(F)F)nc1N)CC3 (stereo not shown) with Full length WRN protein (aa 2-1432) (Homo sapiens (Human), UniProt Q14191) (enter value) 0.005 to 0.015 µM
